Test: xn = mol fraction of the nth substance listed
Settings: 308.15 K; 101 kPa; Liquid; x1 = 0.15
Outcome Measure: mass density (kg/m3)
Report only the number, with the unit kg/m3 understood.

Please fill in: mass density reported for CCCCCC(=O)OCC [ethyl hexanoate] + CCO = 802.42

###

Assay: xn = mol fraction of the nth substance listed
Details: 298.15 K; 100.5 kPa; Liquid; x1 = 0.7
Outcome Measure: viscosity (mPa·s)
The response must be a number in mPa·s with no trailing unit.

Compound	Outcome Measure	Observed
CCCCCCCC(=O)OCC [ethyl octanoate] + CCO	viscosity	1.284

Reported viscosity for CCCCCC(=O)OCC [ethyl hexanoate] + CCO was 0.896

Given item CCOC(=O)Cc1ccccc1 [ethyl phenylacetate] + CCO , the value recorded as its viscosity is 1.895

viscosity reported for this compound CCCC(=O)OCCC(C)C [3-methylbutyl butanoate] + CCO : 1.031

Entry CCOC(=O)c1ccccc1 [ethyl benzoate] + CCO , viscosity reported as 1.595

Entry CC(=O)OCCC(C)C [3-methylbutyl ethanoate] + CCO , viscosity reported as 0.775

###

Experiment: xn = mol fraction of the nth substance listed
Conditions: 288.15 K; 101 kPa; Liquid; x1 = 0.75
Simple rule here: mass density less than 900 kg/m3 is Fulfilled, otherwise Not fulfilled.

The examples below pair each entry with its known result.
Molecule	Label
CCOC(=O)c1ccccc1 [ethyl benzoate] + CCO	Not fulfilled
CCCCCC(=O)OCC [ethyl hexanoate] + CCO	Fulfilled
CCCC(=O)OCCC(C)C [3-methylbutyl butanoate] + CCO	Fulfilled
CCCCCCCC(=O)OCC [ethyl octanoate] + CCO	Fulfilled

Next item in the queue.
mass density strictly < 900 kg/m3 for this molecule? CCOC(=O)Cc1ccccc1 [ethyl phenylacetate] + CCO
Not fulfilled

###

Assay: xn = mol fraction of the nth substance listed
Conditions: 298.15 K; 101 kPa; Liquid; x1 = 0.95
Outcome Measure: mass density (kg/m3)
Field format: number, assumed kg/m3, no unit text.

Compound	Observed
CCOC(=O)Cc1ccccc1 [ethyl phenylacetate] + CCO	1022.36
CCCCCC(=O)OCC [ethyl hexanoate] + CCO	864.66
CCOC(=O)c1ccccc1 [ethyl benzoate] + CCO	1036.09
CCCCCCCC(=O)OCC [ethyl octanoate] + CCO	860.93

# ---- query compound ----
The value of mass density measured for the compound CCCC(=O)OCCC(C)C [3-methylbutyl butanoate] + CCO turned out to be 857.28

###

Test: xn = mol fraction of the nth substance listed
Details: 298.15 K; 101 kPa; Liquid; x1 = 0.75
Reported mass density values follow for various compounds
Please state the figure in kg/m3; there is no need to write the unit.

Solved entries:
Compound	mass density (kg/m3)
CCCCCC(=O)OCC [ethyl hexanoate] + CCO	857.02
CCOC(=O)c1ccccc1 [ethyl benzoate] + CCO	1011.5
CCOC(=O)Cc1ccccc1 [ethyl phenylacetate] + CCO	1001.03
CCCC(=O)OCCC(C)C [3-methylbutyl butanoate] + CCO	850.92

Here is another compound to look at.
Record summary for CCCCCCCC(=O)OCC [ethyl octanoate] + CCO : reported mass density = 854.68

###

Assay: xn = mol fraction of the nth substance listed
Details: 308.15 K; 101 kPa; Liquid; x1 = 0.05
Outcome Measure: mass density (kg/m3)
Entry rule: numbers only, all in kg/m3.

Kindly note the recorded mass density for CCOC(=O)Cc1ccccc1 [ethyl phenylacetate] + CCO , which is 807.65
